assay: Quantitative highthroughput screen to assess conditional lethalithy of SEM cells grown in RPMI1640 with unreated serum (RPMI+s) (AID 1963883); conditions: SEM B-ALL cells, CellTiter-Glo viability, 48 h; series mostly up to 45.8 µM; also: nearly all actives have a fitted effect of over 35% in size;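 as to viability: 100% = DMSO wells and 0% = empty wells without cells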
Records with an inconclusive call do not appear. Calls of active or inactive are those of the source. Calls follow the shape of the dose curve; as a rule, active = well fitted cell-killing curve with a large enough effect; inconclusive = small, poorly fitted or top-dose-only effect, or effect the other way; inactive = no such curve, though single readings can be large or run the other way.
Outcomes: yes = active, no = inactive

Molecule	Discrete label
C=C1CCC2[C@](C)(CO)C(O)CC[C@]2(C)C1CC=C1C(=O)OCC1O (stereo partly specified)	yes
CNS(=O)(=O)CCc1ccc2[nH]cc(C3CCN(C)CC3)c2c1	no
Nc1[nH]c(=O)ncc1F	no
COC(=O)[C@@H]1CC2=CC(=O)CC[C@]2(C)[C@@]23O[C@@H]2C[C@@]2(C)[C@H](CC[C@@]24CCC(=O)O4)[C@@H]13	no
Cc1c(Cn2c(C)nc3c(C(=O)O)cc(N4CCOCC4)cc32)cccc1C(F)(F)F	no
Clc1cccc(Cl)c1NC1=NCCN1	no

---

assay: Quantitative highthroughput screen to assess conditional lethalithy of P12 Ichikawa cells grown in RPMI1640 with dialyzed fetal bovine serum (RPMI+ds) (AID 1963880); conditions: ATP luminescence, 48 h; P12-Ichikawa viability; series mostly up to 45.8 µM; also: nearly all actives have a fitted effect of over 35% in size;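 as to viability: 100% = DMSO wells and 0% = empty wells on each plate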
Inconclusive results are not listed. Calls of active or inactive are those of the source. Calls follow the shape of the dose curve; as a rule, active = well fitted cell-killing curve with a large enough effect; inconclusive = small, poorly fitted or top-dose-only effect; inactive = flat fitted curve, though single readings scatter.
Outcomes: 1 (yes) (active), 0 (no) (inactive)

Compound	Discrete label
CC(C)c1nc(CN(C)C(=O)N[C@H](C(=O)N[C@@H](Cc2ccccc2)C[C@H](O)[C@H](Cc2ccccc2)NC(=O)OCc2cncs2)C(C)C)cs1	0 (no)
COc1ccc(-c2cc(=O)c3c(O)cc(O[C@@H]4O[C@H](CO[C@@H]5O[C@@H](C)[C@H](O)[C@@H](O)[C@@H]5O)[C@@H](O)[C@H](O)[C@@H]4O)cc3o2)cc1O	0 (no)
CN(C)c1cccc(-c2c3c(=O)n(-c4ccccc4Cl)[nH]c3cc(=O)n2C)c1	1 (yes)
CCCc1nc2c(C)cc(-c3nc4ccccc4n3C)cc2n1Cc1ccc(-c2ccccc2C(=O)O)cc1	0 (no)
COc1ccc(-c2oc3c(CC=C(C)C)c(OC4O[C@H](CO)[C@@H](O)[C@H](O)[C@@H]4O)cc(O)c3c(=O)c2OC2O[C@@H](C)[C@H](O)[C@@H](O)[C@@H]2O)cc1 (stereo partly drawn)	0 (no)
O=C(Nc1cc(C(F)(F)F)cc(C(F)(F)F)c1)c1cc(Cl)ccc1O	1 (yes)
O=c1n(CCCN2CCN(c3cccc(Cl)c3)CC2)nc2ccccn12	0 (no)
COc1cccc2c1C(=O)c1c(O)c3c(c(O)c1C2=O)C[C@@](O)(C(=O)CO)C[C@@H]3O[C@H]1C[C@H](N)[C@@H](O)[C@H](C)O1	1 (yes)
O=C(NCc1ccccc1)[C@H](Cc1ccccc1)NC(=O)[C@@H]1O[C@@H]1C(=O)NCCc1ccc(O)cc1	0 (no)
OC(Cn1cncn1)(Cn1cncn1)c1ccc(F)cc1F	0 (no)
CC(C)(S)[C@@H](N)C(=O)O	0 (no)
CN1[C@@H]2CCC[C@@H]1CC(NC(=O)c1nn(C)c3ccccc13)C2 (stereo partly drawn)	0 (no)
CC(C)(F)C[C@H](N[C@@H](c1ccc(-c2ccc(S(C)(=O)=O)cc2)cc1)C(F)(F)F)C(=O)NC1(C#N)CC1	0 (no)

---

assay: Viability qHTS for spleen associated tyrosine kinase inhibitor (SYKi) drug resistant MV4-11 cells (AID 1963824); conditions: SYKi-resistant MV4-11 viability, CellTiter-Glo, 72 h; series mostly up to 45 µM; also: nearly all actives have a fitted effect of over 35% in size
Inconclusive results are not listed. Calls of active or inactive are those of the source. Calls come from the whole dose curve; as a rule, active = well fitted cell-killing curve with a large enough effect; inconclusive = small, poorly fitted or top-dose-only effect, or effect the other way; inactive = no such curve, though single readings can be large or run the other way.
Outcomes: active, inactive

Molecule	Discrete label
CC1=C(C)C(=O)OC(C(C)(O)C2CCC3C4CC=C5CC(OC6OC(COC7OC(CO)C(O)C(O)C7O)C(O)C(O)C6O)CC(O)C5(C)C4CCC32C)C1 (stereo not drawn)	inactive
O=C(Nc1cccc(Nc2ncc(Br)c(NCCc3cnc[nH]3)n2)c1)N1CCCC1	active
CCCCC[C@H](O)C=C[C@H]1[C@H](O)CC(=O)[C@H]1CC=CCCCC(=O)O	active

---

experiment: Viability qHTS for spleen associated tyrosine kinase inhibitor (SYKi) drug resistant MV4-11 cells (AID 1963824); conditions: SYKi-resistant MV4-11 viability, CellTiter-Glo, 72 h; series mostly up to 45 µM; also: nearly all actives have a fitted effect of over 35% in size
Records with an inconclusive call do not appear. The source made the active and inactive calls. Calls come from the whole dose curve; as a rule, active = well fitted cell-killing curve with a large enough effect; inconclusive = small, poorly fitted or top-dose-only effect, or effect the other way; inactive = no such curve, though single readings can be large or run the other way.
Outcomes: true for active, false for inactive

Compound	Discrete label
O=C(c1ccccc1)C(O)c1ccccc1 (stereo unspecified)	false
O=c1cc(N2CCOCC2)oc2c(-c3ccc4c(c3)OCCO4)csc12	true
NS(=O)(=O)c1cc2c(cc1Cl)NC(C(Cl)Cl)NS2(=O)=O (stereo unspecified)	false
O=C(Nc1nc2ccc([N+](=O)[O-])cc2s1)C1CCCCC1	true
Cn1cc(-c2cc(Oc3cc(F)c(NC(=O)C4(C(=O)Nc5ccccc5)CC4)cc3F)ccn2)cn1	true
C=CC(=O)N1CCC[C@@H](n2nc(-c3cccc(C(=O)Nc4ccc(C(C)C)c(C)c4)c3)c3c(N)ncnc32)C1	true
NS(=O)(=O)c1cc2c(cc1Cl)CN(C1CCCCC1)C2=O	false
C/C=C1/CC2C(=O)Nc3cc(O)c(OC)cc3C(=O)N2C1 (stereo unspecified)	true
Nc1nc(Nc2ccc3c(c2)CC[C@@H](N2CCCC2)CC3)nn1-c1cc2c(nn1)-c1ccccc1CCC2	true
C[C@@H]1COCCN1c1cc(C2(S(C)(=O)=O)CC2)nc(-c2cccc3[nH]ccc23)n1	true
Cc1cc(C(=O)NOCCO)c(Nc2ccc(I)cc2F)n(C)c1=O	true

---

experiment: Quantitative highthroughput screen to assess conditional lethalithy of NOMO1 cells grown in RPMI1640 with dialyzed fetal bovine serum (RPMI+ds) (AID 1963877); conditions: NOMO1 in RPMI+dialyzed FBS viability, ATP luminescence, 48 h; series mostly up to 45.8 µM; also: nearly all actives have a fitted effect of over 30% in size; also: potency is read from the fitted curve at half-maximal effect;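 as to viability: 100% = DMSO control wells and 0% = empty wells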
Results filed as inconclusive are left out. The source made the active and inactive calls. Calls follow the shape of the dose curve; as a rule, active = well fitted cell-killing curve with a large enough effect; inconclusive = small, poorly fitted or top-dose-only effect; inactive = flat fitted curve, though single readings scatter.

Query smiles	Potency
CC(=O)OCC(CCn1cnc2cnc(N)nc21)COC(C)=O	inactive
Cc1cc(Nc2nc(N[C@@H](C)c3ccc(F)cc3)c(C#N)cc2F)n[nH]1	2640 nM (active)
O=C(/C=C\n1cnc(-c2cc(C(F)(F)F)cc(C(F)(F)F)c2)n1)NNc1cnccn1	933 nM (active)
O=C(c1ccc(F)c(F)c1Nc1ccc(I)cc1F)N1CC(O)([C@H]2CCCCN2)C1	743 nM (active)
NS(=O)(=O)c1cc(Cl)c(Cl)c(S(N)(=O)=O)c1	inactive
CC(=O)N1CCN(c2ccc(OCc3nn(C)c(C)c3-c3cccc4c(CCCOc5cc(C)c(Cl)c(C)c5)c(C(=O)O)n(Cc5cccnc5)c34)cc2)CC1	inactive
N#Cc1ccc(C(c2ccc(C#N)cc2)n2cncn2)cc1	inactive
Cc1cccc(N(C)C(=S)Oc2ccc3ccccc3c2)c1	inactive
Nc1nc(OCc2ccccc2)c2[nH]cnc2n1	inactive
CCN1CCN(C(=O)N[C@H](C(=O)N[C@@H]2C(=O)N3C(C(=O)O)=C(CSc4nnnn4C)CS[C@@H]23)c2ccc(O)cc2)C(=O)C1=O	inactive

---

experiment: Viability qHTS for spleen associated tyrosine kinase inhibitor (SYKi) drug resistant MV4-11 cells (AID 1963824); conditions: SYKi-resistant MV4-11 viability, CellTiter-Glo, 72 h; series mostly up to 45 µM; also: nearly all actives have a fitted effect of over 35% in size; also: potency is read from the fitted curve at half-maximal effect
Records with an inconclusive call do not appear. Active and inactive are the calls of the source. Calls come from the whole dose curve; as a rule, active = well fitted cell-killing curve with a large enough effect; inconclusive = small, poorly fitted or top-dose-only effect, or effect the other way; inactive = no such curve, though single readings can be large or run the other way.

Compound	Potency
O=C(O)c1ccnc2cc(-c3nc4ccccc4n3CCN3CCCCC3)sc12	inactive
CCCC(=O)O[C@]1(C(=O)CC)CC[C@H]2[C@@H]3CCC4=CC(=O)CC[C@]4(C)[C@H]3[C@@H](O)C[C@@]21C	inactive
C=C1C(=O)OC2CC(COC(=O)C(C)C)=C(C(C)CCCOC(C)=O)[C@@H](OC(C)=O)C12 (stereo partly drawn)	8.93 µM (active)

---

test: Viability qHTS for spleen associated tyrosine kinase inhibitor (SYKi) naive MV4-11 cells (AID 1963823); settings: MV4-11 AML viability, CellTiter-Glo luminescence, 72 h; series mostly up to 45 µM; also: nearly all actives have a fitted effect of over 40% in size
Records with an inconclusive call do not appear. Calls of active or inactive are those of the source. Calls come from the whole dose curve; as a rule, active = well fitted cell-killing curve with a large enough effect; inconclusive = small, poorly fitted or top-dose-only effect, or effect the other way; inactive = no such curve, though single readings can be large or run the other way.
Outcomes: active, inactive

Molecule	Discrete label
COc1cc2c(cc1OC)C(=O)CC2	inactive
CCCCCNC(=O)N1CCC(CN(Cc2ccc(Cl)cc2)Cc2ccc([N+](=O)[O-])s2)C1 (stereo not drawn)	active
CN[C@H]1CC[C@@H](c2ccc(Cl)c(Cl)c2)c2ccccc21	active
CC(C)C[C@@H](N)[C@H](O)C(=O)N[C@H](C(=O)N[C@H](C(=O)N[C@@H](CC(=O)O)C(=O)O)C(C)C)C(C)C	inactive
CCC[C@H](Nc1nc(-c2ccc(NC(=O)NCC)c(OC)c2)ncc1C)c1cccnc1	active
CCC(C)n1ncn(-c2ccc(N3CCN(c4ccc(OC[C@H]5CO[C@](Cn6cncn6)(c6ccc(Cl)cc6Cl)O5)cc4)CC3)cc2)c1=O (stereo partly drawn)	active
COc1ccccc1OCC(O)CO (stereo not drawn)	inactive
CN1CCCN(C(=O)c2cccc(-c3ccc(C=C4C(=O)Nc5ccc(Cl)cc54)o3)c2)CC1	active
CCN(CC)CCCC[C@H](NC(=O)[C@H](CC(C)C)NC(=O)[C@H](C)NC(=O)[C@H](Cc1ccccc1)NC(=O)c1ccc(C(C)(C)C)cc1)C(=O)N[C@@H](CO)C(=O)OC	inactive
CCOCC(O)COc1ccc(NC(=O)CC[S+](C)C)cc1 (stereo not drawn)	inactive
CCCc1ccc(OCC(=O)N2CCN(C(=O)COc3ccc(CCC)cc3OC)CC2)c(OC)c1	inactive
Cc1ccc(OC[C@H](O)[C@H](C)NC(C)C)c2c1CCC2	inactive
O=C(Nc1ccc(CN2CCOCC2)cc1)c1ccc(-c2cccc(Cl)c2)o1	active

Reference source: PubChem BioAssay (NCATS)
